target: human TLR9 (Homo sapiens (Human), UniProt Q9NR96); assay: TLR9 inhibition reporter assay (HEK-Blue SEAP); conditions: read-out: TLR9 IC50; HEK-Blue cells overexpressing human TLR9, ODN2006 5 nM stimulation, SEAP reporter;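 further: SEAP driven by an IFN-β minimal promoter with NF-κB and AP-1 sites, read after 22 h, compounds dosed 0.05 nM–50 µM, inhibition scaled between agonist plus DMSO and reference-inhibitor wells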
Sequence (Q9NR96 26-1032): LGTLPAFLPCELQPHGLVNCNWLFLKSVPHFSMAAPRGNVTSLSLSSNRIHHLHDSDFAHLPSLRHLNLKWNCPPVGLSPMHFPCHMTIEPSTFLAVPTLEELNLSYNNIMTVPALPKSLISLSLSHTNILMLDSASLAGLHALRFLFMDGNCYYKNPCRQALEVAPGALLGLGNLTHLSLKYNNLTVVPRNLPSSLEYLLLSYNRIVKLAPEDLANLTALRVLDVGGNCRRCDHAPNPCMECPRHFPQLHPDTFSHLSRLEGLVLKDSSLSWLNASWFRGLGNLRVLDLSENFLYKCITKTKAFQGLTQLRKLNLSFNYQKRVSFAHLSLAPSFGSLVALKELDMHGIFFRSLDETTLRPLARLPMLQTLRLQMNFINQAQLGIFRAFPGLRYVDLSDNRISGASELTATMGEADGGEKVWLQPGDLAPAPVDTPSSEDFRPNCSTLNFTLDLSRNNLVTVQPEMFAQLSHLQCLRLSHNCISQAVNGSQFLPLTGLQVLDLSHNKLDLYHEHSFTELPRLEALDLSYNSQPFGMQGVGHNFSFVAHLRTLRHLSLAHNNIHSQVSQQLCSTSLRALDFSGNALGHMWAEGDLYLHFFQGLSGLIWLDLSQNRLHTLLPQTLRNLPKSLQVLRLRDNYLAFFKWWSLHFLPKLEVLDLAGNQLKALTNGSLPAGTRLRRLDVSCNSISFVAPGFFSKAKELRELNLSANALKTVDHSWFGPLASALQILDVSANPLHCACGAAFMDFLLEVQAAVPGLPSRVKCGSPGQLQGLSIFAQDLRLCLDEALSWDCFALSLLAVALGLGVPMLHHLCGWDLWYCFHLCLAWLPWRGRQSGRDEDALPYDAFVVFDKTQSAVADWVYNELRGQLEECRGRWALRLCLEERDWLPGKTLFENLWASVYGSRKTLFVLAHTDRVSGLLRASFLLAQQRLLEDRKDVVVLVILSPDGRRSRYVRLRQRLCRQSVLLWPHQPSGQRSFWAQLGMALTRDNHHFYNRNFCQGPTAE
Measured property: IC50 (nM)

[P] CCN(C)C1CCC(c2ccc3[nH]c(-c4cn5ncnc5c(C)c4C)c(C(C)C)c3n2)CC1 (stereo not shown) [Example 388]
[Q] Cc1c(-c2[nH]c3ccc(C4CCC(N(C)C)CC4)nc3c2C(C)C)cn2ncnc2c1C (stereo not shown) [Example 356]
[R] CC(C)c1c(-c2cn(CC#N)c3ncccc23)[nH]c2ccc(C3CCC(NCC(=O)N(C)C)CC3)nc12 (stereo not shown) [Example 272]
Enquiry: Could you please order the items by IC50, going from the lowest number to the highest? Respond with the label ranking, as requested.
Return: R, P, Q

----------
target: human TLR8 (Homo sapiens (Human)); assay: TLR8 inhibition reporter assay (HEK-Blue SEAP); conditions: read-out: TLR8 IC50; HEK-Blue cells overexpressing human TLR8, R848 15.9 μM stimulation, SEAP reporter
pIC50: −log10 of the molar value.
Measured property: pIC50

[P] COc1cc(-c2[nH]c3cc(C)c(C4CCC(N5CC(F)(F)C5)CC4)nc3c2C(C)C)cn2ncnc12 (stereo not shown) [Example 337]
[Q] CCN(CC)C1CCN(c2ccc3[nH]c(-c4cn5ncnc5c(C)c4C)c(C(C)C)c3n2)CC1
[R] COc1cc(-c2[nH]c3ccc(N4CCN(CC(=O)N(C)C)CC4)nc3c2C(C)C)cn2ncnc12
[S] Cc1c(-c2[nH]c3ccc(C4CCC(NCC(=O)N(C)C)CC4)nc3c2C(C)C)cn2ncnc2c1C (stereo not shown) [Example 352]
Enquiry: Could you please order the items by pIC50, going from the lowest number to the highest? Respond with the label ranking, as requested.
Return: P, S, R, Q
(P: 6.46, S: 8.04, R: 8.59, Q: 8.92)

----------
biological target: human TLR8 (Homo sapiens (Human), UniProt Q9NR97); experiment: TLR8 inhibition reporter assay (HEK-Blue SEAP); settings: read-out: TLR8 IC50; HEK-Blue human TLR8 cells, R848 15.9 μM
Sequence (Q9NR97 27-1041): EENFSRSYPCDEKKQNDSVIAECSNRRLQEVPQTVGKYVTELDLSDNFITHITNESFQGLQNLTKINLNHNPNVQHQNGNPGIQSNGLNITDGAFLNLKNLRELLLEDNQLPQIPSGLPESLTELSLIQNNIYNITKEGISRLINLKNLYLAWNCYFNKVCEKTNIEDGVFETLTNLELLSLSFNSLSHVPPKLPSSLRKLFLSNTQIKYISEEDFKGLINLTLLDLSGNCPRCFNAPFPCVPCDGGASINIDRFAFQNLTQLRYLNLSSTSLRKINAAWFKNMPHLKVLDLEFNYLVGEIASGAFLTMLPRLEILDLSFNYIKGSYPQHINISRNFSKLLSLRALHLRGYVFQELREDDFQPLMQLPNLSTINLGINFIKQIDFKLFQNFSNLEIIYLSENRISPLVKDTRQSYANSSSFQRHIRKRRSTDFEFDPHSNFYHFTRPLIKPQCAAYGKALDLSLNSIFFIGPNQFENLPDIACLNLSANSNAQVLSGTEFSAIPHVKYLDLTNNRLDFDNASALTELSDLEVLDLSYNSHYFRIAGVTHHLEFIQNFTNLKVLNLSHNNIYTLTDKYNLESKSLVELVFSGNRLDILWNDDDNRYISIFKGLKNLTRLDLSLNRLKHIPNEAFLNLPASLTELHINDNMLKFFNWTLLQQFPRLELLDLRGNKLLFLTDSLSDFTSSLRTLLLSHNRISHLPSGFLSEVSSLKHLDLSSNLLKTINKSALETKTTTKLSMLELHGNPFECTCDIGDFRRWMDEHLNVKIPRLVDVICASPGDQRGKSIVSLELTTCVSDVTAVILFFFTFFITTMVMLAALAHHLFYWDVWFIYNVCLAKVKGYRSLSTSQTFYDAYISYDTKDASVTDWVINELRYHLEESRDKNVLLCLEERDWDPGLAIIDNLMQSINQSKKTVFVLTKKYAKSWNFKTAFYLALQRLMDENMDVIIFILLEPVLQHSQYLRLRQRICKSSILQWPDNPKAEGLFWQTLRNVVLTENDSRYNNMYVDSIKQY
pIC50: −log10 of the molar value.
Measured property: pIC50

[P] Cc1c(-c2[nH]c3ccc(N4C[C@@H](C)N(C(=O)CN5CC6(COC6)C5)[C@H](C)C4)nc3c2C(C)C)cn2ncnc2c1C
[Q] Cc1c(-c2[nH]c3ccc(N4CCN(C(=O)CN5CC6(CCO6)C5)CC4)nc3c2C(C)C)cn2ncnc2c1C
[R] CCCN(C)CC(=O)N1C[C@H](C)N(c2ccc3[nH]c(-c4cn5ncnc5c(C)c4C)c(C(C)C)c3n2)C[C@H]1C
[S] Cc1c(-c2[nH]c3ccc(N4CCN(C(=O)CN(CC(C)C)C(C)C)CC4)nc3c2C(C)C)cn2ncnc2c1C
Enquiry: Could you please order the items by pIC50, going from the lowest number to the highest? Respond with the label ranking, as requested.
Return: S, Q, P, R
(S: 7.52, Q: 8.20, P: 8.41, R: 9.05)

[P] Cc1c(-c2[nH]c3ccc(N4CC5(CN(CCC(N)=O)C5)C4)nc3c2C(C)C)cn2ncnc2c1C
[Q] Cc1c(-c2[nH]c3ccc(N4CCC(N(C)CC5(C)COC5)CC4)nc3c2C(C)C)cn2ncnc2c1C
[R] Cc1c(-c2[nH]c3ccc(N4CCN(C(=O)CN5CC(C)(O)C5)CC4)nc3c2C(C)C)cn2ncnc2c1C
Enquiry: Hey, quick one: sort these by pIC50, largest value first please. Respond with the label ranking, as requested.
Return: Q, R, P
(Q: 9.40, R: 8.74, P: 8.13)

[P] Cc1c(-c2[nH]c3ccc(N4CCN(C(=O)C5(N(C)C)CC5)CC4)nc3c2C(C)C)cn2ncnc2c1C
[Q] Cc1c(-c2[nH]c3ccc(N4C[C@@H](C)N(C(=O)CN5CC6(COC6)C5)C[C@@H]4C)nc3c2C(C)C)cn2ncnc2c1C
Enquiry: Pick the one with the larger pIC50: P vs Q Could you answer with the label of the item you picked?
Return: Q
(Q: 9.43, P: 8.30)

[1] Cc1c(-c2[nH]c3ccc(C4CC5(C4)CN(CCC(N)=O)C5)nc3c2C(C)C)cn2ncnc2c1C
[2] Cc1c(-c2[nH]c3ccc(N4CCN(C(=O)CN5CC6(COC6)C5)[C@@H](C)C4)nc3c2C(C)C)cn2ncnc2c1C
Enquiry: Pick the one with the larger pIC50: 1 vs 2 Could you answer with the label of the item you picked?
Return: 2
